Tested on: COLO 205 cells
Protocol notes: Apoptosis (sub-G1) by flow cytometry
Assay type: cell-based, human
Run conditions: COLO 205, 5 μM, 24 h, mean ± SE
Overview of reported apoptotic ratio across a group of compounds:
Quantity kind: apoptotic ratio (%)

compound="CC(=O)OCCC[C@H](C)C1=C[C@@H]2[C@H](C)C(=O)O[C@@H]2C[C@@]1(C)O [Compound 2, neobritannilactone A]" observed_measurement=4.08
compound="C=C1C(=O)OC2CC(C)=C(C(C)CCCO)C(OC(=O)C(C)CC)C12 (stereo not drawn) [Compound 1, 6β-O-(2-methylbutyryl)-britannilactone]" observed_measurement=5.33
compound="C=C1C(=O)O[C@H]2/C=C(\\C)CC/C=C(\\C)C[C@H](OC(C)=O)[C@@H]12 [Compound 4, acetyl neobritannilactone B]" observed_measurement=15.47
